Molecular target: T1, human BCMA on NCI-H929 cells (human, UniProt Q02223 1-184)
T1 construct: BCMA-positive human multiple myeloma cell line NCI-H929 (ATCC CRL-9068); also called B-cell maturation antigen; CD269
T1 sequence: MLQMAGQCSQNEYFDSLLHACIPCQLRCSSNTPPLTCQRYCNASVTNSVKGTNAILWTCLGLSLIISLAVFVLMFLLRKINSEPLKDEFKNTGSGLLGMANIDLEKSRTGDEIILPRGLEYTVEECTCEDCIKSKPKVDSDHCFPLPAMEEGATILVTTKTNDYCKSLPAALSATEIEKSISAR
Assay: flow cytometry on NCI-H929 cells, yeast-expressed antibody
Could you please report measured EC50 for the items listed next?
Answer with the number, then the unit.

Would you mind telling me what EC50 value was observed for ADI-34850 (antibody, V domains shown, Yeast-expressed fully human antibody purified on protein A) VH: EVQLVESGGGLVQPGRSLRLSCAASGFTFDDYAMHWVRQAPGKGLEWVSGISWSSGSIGYADSVKGRFTISRDNAKNSLYLQMNSLRAEDTAVYYCAKDSPRRDSFGSIAFDIWGQGTMVTVSS VL: EIVMTQSPATLSVSPGERATLSCRASQSVGSNLAWYQQKPGQAPRLLIYGASTRATGIPARFSGSGSGTEFTLTISSLQSEDFAVYYCQQSVNLPITFGGGTKVEIK ?
12.1 nM

// same read-out, input: ADI-34859 (antibody, V domains shown, Yeast-expressed fully human antibody purified on protein A) VH: QLQLQESGPGLVKPSETLSLTCTVSGGSISSSSYYWGWIRQPPGKGLEWIGSISYSGSTYYNPSLKSRVTISVDTSKNQFSLKLSSVTAADTAVYYCARDRGDTILDVWGQGTMVTVSS VL: DIQMTQSPSSLSASVGDRVTITCRASQSINSYLNWYQQKPGKAPKLLIYAASSLQSGVPSRFSGSGSGTDFTLTISSLQPEDFATYYCQQKASAPITFGGGTKVEIK
85.8 nM

Entry to check: ADI-34832 (antibody, V domains shown, Yeast-expressed fully human antibody purified on protein A) VH: QITLKESGPTLVKPTQTLTLTCTFSGFSLSTSGVGVGWIRQPPGKALEWLALIYWNDEKRYSPSLKSRLTITKDTSKNQVVLTMTNMDPVDTAVYYCARDPGEQLQVFDYWGQGTLVTVSS VL: DIQMTQSPSSVSASVGDRVTITCRASQGISSWLAWYQQKPGKAPKLLIYAASSLQSGVPSRFSGSGSGTDFTLTISSLQPEDFATYYCQQTLSLPITFGGGTKVEIK
34.1 nM

What do you have for ADI-34860 (antibody, V domains shown, Yeast-expressed fully human antibody purified on protein A) VH: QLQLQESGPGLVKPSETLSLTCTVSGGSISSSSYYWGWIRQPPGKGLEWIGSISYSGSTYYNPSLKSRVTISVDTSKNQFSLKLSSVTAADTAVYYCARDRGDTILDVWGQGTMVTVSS VL: DIQMTQSPSSLSASVGDRVTITCRASQSISSYLNWYQQKPGKAPKLLIYAASSLQSGVPSRFSGSGSGTDFTLTISSLQPEDFATYYCQQKYDLLTFGGGTKVEIK ?
144 nM
